target: Human immunodeficiency virus type 1 reverse transcriptase (Human immunodeficiency virus 1, UniProt Q72547)
Quantity Kind: pIC50
API: returns pIC50 as number; meaning -log10 of concentration in mol/L.

* COc1c(C)cc(/C(=C/CCCc2nnc(C)o2)c2cc(C)c3oc(=O)n(C)c3c2)cc1C(=O)SC | 4.44

[Q] Data request, read-out pIC50, for COc1c(C)cc(/C(=C\CCc2nnc(C)o2)c2cc(C)c3onc(OC)c3c2)cc1C(=O)SC
[A] 6.05

[Q] Data request, read-out pIC50, for COC(=O)c1cc(C(=CCCc2nnc(C)o2)c2cc(C)c(OC)c(C(=O)SC)c2)cc(C)c1OC
[A] 4.49

[Q] Data request, read-out pIC50, for COc1c(C)cc(/C(=C/CCCc2nnc(C)o2)c2ccc(C#N)cc2)cc1C(=O)SC
[A] 6.35

###

test: Cytotoxicity against human CEM-SS cells by MTT assay; assay type: cell-based
A collection of compounds and their measured log10 CC50
Hi team, quick reminder: these entries are log10 of CC50 (µM).

• COC(=O)c1cc(C(=CCCc2nnn(C)n2)c2cc(C)c(OC)c(C(=O)SC)c2)cc(C)c1OC = 0.20

[Q] Data request, read-out log10 CC50, for COc1c(C)cc(/C(=C\CCc2nnc(C)o2)c2cccc(C#N)c2)cc1C(=O)SC
[A] 0.43

[Q] Data request, read-out log10 CC50, for COc1c(C)cc(/C(=C/CCc2nnc(C)o2)c2cc(C)c3oc(=O)n(C)c3c2)cc1C(=O)SC
[A] 0.82

[Q] Data request, read-out log10 CC50, for COc1c(C)cc(C(=CCCc2nnn(C)n2)c2cc(C)c(OC)c(C(=O)SC)c2)cc1C(=O)SC
[A] 1.52

[Q] Data request, read-out log10 CC50, for COc1c(C)cc(/C(=C/CCCc2nnc(C)o2)c2cc(C)c3onc(OC)c3c2)cc1C(=O)SC
[A] -0.11

[Q] Data request, read-out log10 CC50, for COC(=O)c1cc(C(=CCCc2nnc(C)o2)c2cc(C)c(OC)c(C(=O)SC)c2)cc(C)c1OC
[A] 1.11

[Q] Data request, read-out log10 CC50, for COC(=O)c1cc(/C(=C\CCc2nnc(C)o2)c2ccc(C#N)cc2)cc(C)c1OC
[A] 1.45

[Q] Data request, read-out log10 CC50, for COc1c(C)cc(/C(=C/CCCc2nnc(C)o2)c2cc(C)c3on(C)c(=O)c3c2)cc1C(=O)SC
[A] 1.08

###

A collection of molecules and their measured CC50
experiment: Cytotoxicity against human MT4 cells by MTT assay; assay type: cell-based
Kindly provide the numeric value in µM only, without the unit symbol.

- Cc1ccnc2c1NC(=O)c1cccnc1N2C1CC1 [NEVIRAPINE]: 15
- COC(=O)c1cc(C(=CCCc2nnc(C)o2)c2cc(C)c(OC)c(C(=O)OC)c2)cc(C)c1OC: 37
- O=C1Nc2ccc(Cl)cc2C(C#CC2CC2)(C(F)(F)F)O1 (single isomer, unassigned) [EFAVIRENZ]: 6
- COc1c(C)cc(/C(=C\CCCc2nnc(C)o2)c2cccc(C#N)c2)cc1C(=O)SC: 36
- COc1c(C)cc(/C(=C\CCCc2nnc(C)o2)c2cc(C)c3onc(OC)c3c2)cc1C(=O)SC: 7

[Q] Data request, read-out CC50, for COc1c(C)cc(C(=CCCc2nnn(C)n2)c2cc(C)c(OC)c(C(=O)SC)c2)cc1C(=O)SC
[A] 7

[Q] Data request, read-out CC50, for COC(=O)CCCC=C(c1cc(Br)c(OC)c(C(=O)OC)c1)c1cc(Br)c(OC)c(C(=O)OC)c1
[A] 91

[Q] Data request, read-out CC50, for COC(=O)c1cc(/C(=C\CCc2nnc(C)o2)c2ccc(C#N)cc2)cc(C)c1OC
[A] 16

[Q] Data request, read-out CC50, for COc1c(C)cc(/C(=C/CCCc2nnc(C)o2)c2ccc(C#N)cc2)cc1C(=O)SC
[A] 7.6

[Q] Data request, read-out CC50, for COC(=O)c1cc(C(=CCCc2nnn(C)n2)c2cc(C)c(OC)c(C(=O)OC)c2)cc(C)c1OC
[A] 5

[Q] Data request, read-out CC50, for COc1c(C)cc(/C(=C\CCCc2nnc(C)o2)c2cc(C)c3on(C)c(=O)c3c2)cc1C(=O)SC
[A] 9.9

[Q] Data request, read-out CC50, for COc1c(C)cc(/C(=C/CCc2nnc(C)o2)c2ccc3oc(=O)n(C)c3c2)cc1C(=O)SC
[A] 12

[Q] Data request, read-out CC50, for COc1c(C)cc(/C(=C/CCCc2nnc(C)o2)c2cc(C)c3onc(OC)c3c2)cc1C(=O)SC
[A] 1.1

[Q] Data request, read-out CC50, for COC(=O)c1cc(/C(=C\CCc2nnc(C)o2)c2cc(C)c3on(C)c(=O)c3c2)cc(C)c1OC
[A] 41
